// provenance: patent US20190315873A1

- STUDY_SYSTEM: T1, human MET ECD (human, UniProt P08581 25-932)
- T1 construct: range 1-932; recombinant ECD made by standard protein engineering; also called hMET; human MET extracellular domain
- T1 sequence (P08581 25-932 limits assumed, form in doubt): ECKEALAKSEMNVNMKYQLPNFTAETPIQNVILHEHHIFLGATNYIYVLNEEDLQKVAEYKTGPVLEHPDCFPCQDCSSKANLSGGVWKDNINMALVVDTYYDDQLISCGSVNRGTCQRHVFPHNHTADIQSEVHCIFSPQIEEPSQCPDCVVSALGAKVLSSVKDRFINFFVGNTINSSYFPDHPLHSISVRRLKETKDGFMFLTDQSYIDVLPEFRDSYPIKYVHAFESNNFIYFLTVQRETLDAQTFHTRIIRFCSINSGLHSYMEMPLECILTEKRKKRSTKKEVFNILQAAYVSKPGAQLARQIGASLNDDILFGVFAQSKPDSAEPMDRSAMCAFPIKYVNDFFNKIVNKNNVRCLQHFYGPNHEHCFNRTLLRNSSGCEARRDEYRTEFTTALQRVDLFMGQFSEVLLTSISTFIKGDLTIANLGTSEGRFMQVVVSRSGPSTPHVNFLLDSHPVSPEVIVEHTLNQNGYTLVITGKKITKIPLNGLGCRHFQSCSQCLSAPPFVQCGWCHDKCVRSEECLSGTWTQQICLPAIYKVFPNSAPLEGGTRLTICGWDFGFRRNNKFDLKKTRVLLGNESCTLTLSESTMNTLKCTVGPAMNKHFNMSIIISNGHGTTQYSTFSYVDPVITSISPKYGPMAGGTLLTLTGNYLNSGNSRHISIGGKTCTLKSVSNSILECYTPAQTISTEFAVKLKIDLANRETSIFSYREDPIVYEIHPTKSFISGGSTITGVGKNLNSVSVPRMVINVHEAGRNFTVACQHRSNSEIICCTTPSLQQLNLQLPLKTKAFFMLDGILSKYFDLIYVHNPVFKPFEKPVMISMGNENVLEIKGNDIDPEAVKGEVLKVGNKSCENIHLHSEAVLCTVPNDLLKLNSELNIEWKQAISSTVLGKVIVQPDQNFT
- MEASUREMENT_DESCRIPTION: ELISA: MET ECD immobilized (100 ng/well), mAb in human IgG1/lambda format in solution (0-40 nM), HRP anti-human Fc
Listing of entries alongside the reported EC50 (read off the curve).

{"columns": ["BINDER", "EC50 (read off the curve)"],
 "data": [
  ["71A3 llama-human chimeric mAb (human IgG1/lambda) (antibody, V domains shown) VH: EVQLVESGGGLVQPGGSLRLSCAASGFSFKDYDITWVRQAPGKGLEWVSTITSRSGSTSYVDSVKGRFTISGDNAKNTLYLQMNSLKPEDTAVYYCAKVYATTWDVGPLGYGMDYWGKGTLVTVSS VL: SYELTQPSALSVTLGQTAKITCQGGSLGSSYAHWYQQKPGQAPVLVIYDDDSRPSGIPERFSGSSSGGTATLTISGAQAEDEGDYYCQSADSSGNAAVFGGGTHLTVLQ", "~0.09 nM"],
  ["76H10 llama-human chimeric mAb (human IgG1/lambda) (antibody, V domains shown) VH: QLQLVESGGGLVQPGGSLRVSCTASGFTFNTYYMTWVRQAPGKGLEWVSDINSGGGTYYADSVKGRFTISRDNAKNTLYLQMNSLKPEDTALYYCVRVRIWPVGYDYWGQGTQVTVSS VL: QAVVTQEPSLSVSPGGTVTLTCGLSSGSVTTSNYPGWFQQTPGQAPRTLIYNTNNRHSGVPSRFSGSISGNKAALTITGAQPEDEADYYCSLYTGSYTTVFGGGTHLTVLQ", "~0.1 nM"],
  ["71C3 llama-human chimeric mAb (human IgG1/lambda) (antibody, V domains shown) VH: QLQLVESGGGLVQPGGSLRLSCAASGFTFSSHAMSWVRQAPGKGLEWVSAINSGGGSTSYADSVKGRFTISRDNAKNTLYLQMNSLKPEDTAVYYCAKELRFDLARYTDYEAWDYWGQGTQVTVSS VL: SYELTQPSALSVTLGQTAKITCQGGSLGSSYAHWYQQKPGQAPVLVIYDDDSRPSGIPERFSGSSSGGTATLTISGAQAEDEGDYYCQSADSSGNAAVFGGGTHLTVLQ", "~0.1 nM"],
  ["71D4 llama-human chimeric mAb (human IgG1/lambda) (antibody, V domains shown) VH: ELQLVESGGGLVQPGGSLRLSCAASGFTFSGYGMSWVRQAPGKGLEWVSDINSGGGSTSYADSVKGRFTISRDNAKNTLYLQMNSLKPEDTAVYYCAKDMRLYLARYNDYEAWDYWGQGTQVTVSS VL: SSALTQPSALSVTLGQTAKITCQGGSLGSSYAHWYQQKPGQAPVLVIYDDDSRPSGIPERFSGSSSGGTATLTISGAQAEDEGDYYCQSADSSGNAAVFGGGTHLTVLQ", "~0.2 nM"]
]}
